Target: hTG2 (Homo sapiens)
Sequence (P21980 1-687): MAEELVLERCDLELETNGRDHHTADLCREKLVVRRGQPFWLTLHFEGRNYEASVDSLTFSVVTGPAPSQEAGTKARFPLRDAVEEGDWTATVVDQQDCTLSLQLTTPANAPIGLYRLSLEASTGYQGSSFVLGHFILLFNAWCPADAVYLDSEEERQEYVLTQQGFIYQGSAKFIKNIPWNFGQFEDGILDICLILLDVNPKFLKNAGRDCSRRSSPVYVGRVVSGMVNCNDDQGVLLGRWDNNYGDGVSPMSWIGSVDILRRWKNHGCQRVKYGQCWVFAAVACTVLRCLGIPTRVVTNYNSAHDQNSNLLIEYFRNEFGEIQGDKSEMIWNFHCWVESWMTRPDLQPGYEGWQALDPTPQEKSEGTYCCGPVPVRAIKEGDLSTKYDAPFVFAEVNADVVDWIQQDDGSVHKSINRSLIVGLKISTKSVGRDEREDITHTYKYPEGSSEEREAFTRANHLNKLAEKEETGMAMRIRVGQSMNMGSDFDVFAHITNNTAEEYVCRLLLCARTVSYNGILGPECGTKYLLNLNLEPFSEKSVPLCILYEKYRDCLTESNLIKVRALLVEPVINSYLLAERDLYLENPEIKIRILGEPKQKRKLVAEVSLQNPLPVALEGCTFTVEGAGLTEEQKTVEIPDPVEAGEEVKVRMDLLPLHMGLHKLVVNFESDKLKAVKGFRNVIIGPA
Test: biochemical
Details: fit to saturation kinetics model; 25° C., pH 6.95, 100 μM AL5; read-out: kinact (converted)
MEASURED QUANTITY: kinact (s⁻¹)
Write the number in s⁻¹ without appending the unit.

Lab entry: hTG2 (Homo sapiens) assay, compound C=CC(=O)NCCCC[C@H](NC(=O)c1ccc(F)cc1)C(=O)N1CCN(C(=O)c2cccc3ccccc23)CC1 , kinact = 0.015

Lab entry: hTG2 (Homo sapiens) assay, compound C=CC(=O)NCCCC[C@H](NC(=O)CCCc1ccccc1)C(=O)N1CCN(C(=O)c2cccc3ccccc23)CC1 , kinact = 0.0035

Lab entry: hTG2 (Homo sapiens) assay, compound C=CC(=O)NCCCC[C@H](NC(=O)c1nccn1C)C(=O)N1CCN(C(=O)c2cccc3ccccc23)CC1 , kinact = 0.003

Lab entry: hTG2 (Homo sapiens) assay, compound C=CC(=O)NCCCC[C@H](NC(=O)C1C2CC3CC(C2)CC1C3)C(=O)N1CCN(C(=O)c2cccc3ccccc23)CC1 (stereo partly shown) , kinact = 0.00383

Lab entry: hTG2 (Homo sapiens) assay, compound C=CC(=O)NCCCC[C@H](NC(=O)Cc1ccc(Cl)c(Cl)c1)C(=O)N1CCN(C(=O)c2cccc3ccccc23)CC1 , kinact = 0.00133

Lab entry: hTG2 (Homo sapiens) assay, compound C=CC(=O)NCCCC[C@H](NC(=O)Cc1ccc(F)cc1)C(=O)N1CCN(C(=O)c2cccc3ccccc23)CC1 , kinact = 0.00817

Lab entry: hTG2 (Homo sapiens) assay, compound C=CC(=O)NCCCC[C@H](NC(=O)C(C)C)C(=O)N1CCN(C(=O)c2cccc3ccccc23)CC1 , kinact = 0.0108

Lab entry: hTG2 (Homo sapiens) assay, compound C=CC(=O)NCCCC[C@H](NC(=O)CC)C(=O)N1CCN(C(=O)c2cccc3ccccc23)CC1 , kinact = 0.00883

Lab entry: hTG2 (Homo sapiens) assay, compound C=CC(=O)NCCCC[C@H](NC(=O)C1CC1)C(=O)N1CCN(C(=O)c2cccc3ccccc23)CC1 , kinact = 0.017

Lab entry: hTG2 (Homo sapiens) assay, compound C=CC(=O)NCCCC[C@H](NC(=O)Cc1ccccc1Br)C(=O)N1CCN(C(=O)c2cccc3ccccc23)CC1 , kinact = 0.0517

Lab entry: hTG2 (Homo sapiens) assay, compound C=CC(=O)NCCCC[C@H](NC(=O)Cc1cccc(Cl)c1Cl)C(=O)N1CCN(C(=O)c2cccc3ccccc23)CC1 , kinact = 0.00767

Lab entry: hTG2 (Homo sapiens) assay, compound C=CC(=O)NCCCC[C@H](NC(=O)Cc1cccc(Cl)c1)C(=O)N1CCN(C(=O)c2cccc3ccccc23)CC1 , kinact = 0.005

Lab entry: hTG2 (Homo sapiens) assay, compound C=CC(=O)NCCCC[C@H](NC(=O)Cc1cccc(F)c1)C(=O)N1CCN(C(=O)c2cccc3ccccc23)CC1 , kinact = 0.0125

Lab entry: hTG2 (Homo sapiens) assay, compound C=CC(=O)NCCCC[C@H](NC(=O)C(C)(C)C)C(=O)N1CCN(C(=O)c2cccc3ccccc23)CC1 , kinact = 0.00817

Lab entry: hTG2 (Homo sapiens) assay, compound C=CC(=O)NCCCC[C@H](NS(C)(=O)=O)C(=O)N1CCN(C(=O)c2cccc3ccccc23)CC1 , kinact = 0.0095

Lab entry: hTG2 (Homo sapiens) assay, compound C=CC(=O)NCCCC[C@H](NS(=O)(=O)Cc1ccccc1)C(=O)N1CCN(C(=O)c2cccc3ccccc23)CC1 , kinact = 0.00883

Reference source for all entries: patent US20240383869A1
